system: DMPK; assay: DMPK knockdown by transfected antisense oligonucleotides in DM1 C15 myotubes at 0.5 nM and 50 nM; assay type: cell-based; details: 50 nM oligonucleotide, 72 hours, qPCR, relative to vehicle control
Please note: 1 applies when Percent DMPK Reduction is 60% or greater, and -1 applies otherwise.

Check out these entries, answers already filled in.
• 249 (AAACUUGCUCAGCAGUGUCA; chemistry not given here) [compound 249] = -1
• 282 (AAAGCGCCUCCGAUAGGCCA; chemistry not given here) [compound 282] = 1
• 331 (GGCCUCAGCCUGGCCGAAAG; chemistry not given here) [compound 331] = 1

Input: // inclusive: Percent DMPK Reduction at least 60%? input: 281 (ACAGCGGUCCAGCAGGAUGU; chemistry not given here) [compound 281]
Output: -1

Input: // inclusive: Percent DMPK Reduction at least 60%? input: 294 (CGUUCCAUCUGCCCGCAGCU; chemistry not given here) [compound 294]
Output: 1

Input: // inclusive: Percent DMPK Reduction at least 60%? input: 247 (GGGCCCGGAUCACAGGACUG; chemistry not given here) [compound 247]
Output: 1
